EXPERIMENTAL SYSTEM: Kallikrein-6 (Homo sapiens, UniProt Q92876)
EXPERIMENTAL DETAILS: Activities on KLK6 (Boc-QAR-AMC): In a typical test, 100 μl of reaction medium contains the buffer, 1 μl of recombinant enzyme, 1 μl of substrate (Boc-QAR-AMC) and 1 μl of the compound tested at 10 μM (in the control, 1 μl of DMSO). In each well, the inhibitor is deposited in the presence of the enzyme-buffer mixture for preincubation for 15 minutes at 37° C. The enzymatic reaction is then …
Description: Activities on KLK6 (Boc-QAR-AMC): In a typical test, 100 μl of reaction medium contains the buffer, 1 μl of recombinant enzyme, 1 μl of substrate (Boc-QAR-AMC) and 1 μl of the compound tested at 10 μM (in the control, 1 μl of DMSO). In each well, the inhibitor is deposited in the presence of the enzyme-buffer mixture for preincubation for 15 minutes at 37° C. The enzymatic reaction is then triggered by adding the buffer-substrate mixture (100 μM). The release of the 7-amino-4-methylcoumarin fluorescent group (AMC, λex=360 nm, λem=460 nm) following the hydrolysis of the substrate catalyzed by the enzyme is monitored for 30 minutes at 37° C. using a FLUOstar spectrofluorimeter.
REPORTED ENDPOINT: IC50 (µM)
// return numeric value only (unit: µM, not printed)

Examples from the recorded data:
{"STRUCTURE": "CC(C)c1ccc(C(=O)Nc2ccc(CN)cc2)c(O)c1", "EXPERIMENTAL SYSTEM": "Kallikrein-6 (Homo sapiens, UniProt Q92876)", "REPORTED ENDPOINT": "IC50", "READOUT NUMBER": 1.56}
{"STRUCTURE": "NCc1ccc(NC(=O)c2ccc3ccccc3c2O)cc1", "EXPERIMENTAL SYSTEM": "Kallikrein-6 (Homo sapiens, UniProt Q92876)", "REPORTED ENDPOINT": "IC50", "READOUT NUMBER": 1.5}

Now consider a different compound.
For this compound ( Cc1ccc(C(=O)Nc2ccc(CN)cc2)c(O)c1 ), measured IC50 is 5.42
